Cited source: patent US20260001914A1

biological target: KRAS-G12D protein (Homo sapiens, UniProt P01116, G12D); test: SOS-mediated nucleotide exchange assay (BODIPY-GDP / Tb-streptavidin TR-FRET); assay type: biochemical
Sequence (P01116 1-188 isoform P01116-2 G12D): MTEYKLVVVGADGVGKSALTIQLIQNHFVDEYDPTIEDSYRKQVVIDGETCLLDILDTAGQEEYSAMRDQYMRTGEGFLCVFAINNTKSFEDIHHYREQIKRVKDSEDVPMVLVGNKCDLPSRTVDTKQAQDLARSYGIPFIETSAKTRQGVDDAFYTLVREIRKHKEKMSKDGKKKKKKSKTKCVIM
*1 amine or outer side, *2 acyl side, *3 side chain or, on linkers, in order; H or OH if unused. Where a SMILES comes first, the peptide text is derived from it. Bridges are numbered along the chain shown (N, C = ends). [ ]: non-standard residue; d: D form. Phe(4-guanidino) = N=C(N)Nc1ccc(C[C@H](N)C(=O)O)cc1; X72 = CC1(C)NC(=N)N(CCC[C@H](N[*:1])C(=O)[*:2])C1=O; Lys(N3) = [N-]=[N+]=NCCCC[C@H](N)C(=O)O; X21 = O=C([C@@H]1C[C@H]1CN[*:1])[*:2]; Phe(2-F) = N[C@@H](Cc1ccccc1F)C(=O)O; X70 = O=C(C1CC2(C1)CN([*:1])C2)[*:2]; NMe3Pal = CN[C@@H](Cc1cccnc1)C(=O)O; X1 = O=C(C12CC(CN[*:1])(C1)C2)[*:2]; NMeR = CN[C@@H](CCCNC(=N)N)C(=O)O; NMeF = CN[C@@H](Cc1ccccc1)C(=O)O; PhLac = O=C(O)[C@@H](O)Cc1ccccc1; 3Pal = N[C@@H](Cc1cccnc1)C(=O)O; d3Pal = N[C@H](Cc1cccnc1)C(=O)O; Cba = N[C@@H](CC1CCC1)C(=O)O; NMeS = CN[C@@H](CO)C(=O)O; NMeA = CN[C@@H](C)C(=O)O; Nle = CCCC[C@H](N)C(=O)O; Nva = CCC[C@H](N)C(=O)O
// assign y if EC50 falls strictly below 500 nM, else n (ties count as n)

compound="CCCC[C@@H]1NC(=O)[C@H](Cc2cccnc2)NC(=O)[C@H](CCCNC(=N)N)N(C)C(=O)[C@H](Cc2ccccc2)NC(=O)[C@@H]2C[C@H]2CNC(=O)[C@H](Cc2ccccc2)N(C)C(=O)[C@H](CCCCN=[N+]=[N-])NC(=O)[C@H](Cc2ccc(OC)cc2)NC1=O [compound 94] (cyclo(F[NMeR][3Pal][Nle]Y(Me)[Lys(N3)][NMeF][X21]))" target_or_test_system="KRAS-G12D protein (Homo sapiens, UniProt P01116, G12D)" class=y
compound="CCCC[C@@H]1NC(=O)[C@H](Cc2ccccc2F)NC(=O)[C@H](CC2CCC2)NC(=O)[C@@H](Cc2cccnc2)NC(=O)[C@H](CCCN2C(=N)NC(C)(C)C2=O)NC(=O)[C@H](Cc2ccccc2)NC(=O)C23CC(CNC(=O)[C@H](Cc4cccnc4)N(C)C1=O)(C2)C3 [compound 105] (cyclo(F[X72][d3Pal][Cba][Phe(2-F)][Nle][NMe3Pal][X1]))" target_or_test_system="KRAS-G12D protein (Homo sapiens, UniProt P01116, G12D)" class=y
compound="CCCC[C@@H]1NC(=O)[C@H](Cc2cccnc2)NC(=O)[C@H](C)N(C)C(=O)[C@H](Cc2ccc(OC)cc2)NC(=O)C23CC(CNC(=O)[C@H](Cc4cccnc4)N(C)C(=O)[C@H](CCCC)NC(=O)[C@H](Cc4ccccc4F)NC1=O)(C2)C3 [compound 169] (cyclo([3Pal][Nle][Phe(2-F)][Nle][NMe3Pal][X1]Y(Me)[NMeA]))" target_or_test_system="KRAS-G12D protein (Homo sapiens, UniProt P01116, G12D)" class=n
compound="CCCC[C@@H]1NC(=O)[C@H](Cc2ccc(OC)cc2)NC(=O)[C@H](CC(C)C)NC(=O)[C@H](Cc2ccc(NC(=N)N)cc2)NC(=O)[C@H](CCC)NC(=O)[C@H](Cc2ccccc2)NC(=O)CSC[C@H](C(N)=O)NC(=O)[C@H](Cc2ccccc2)N(C)C1=O [compound 48] ({CH2CO}-F[Nva][Phe(4-guanidino)]LY(Me)[Nle][NMeF][dC]-NH2; thioether N-8)" target_or_test_system="KRAS-G12D protein (Homo sapiens, UniProt P01116, G12D)" class=n
compound="CCCC[C@@H]1NC(=O)[C@H](Cc2ccc(OC)cc2)NC(=O)[C@H](CC2CCC2)NC(=O)[C@H](Cc2cccnc2)NC(=O)[C@H](CCCNC(=N)N)NC(=O)[C@H](Cc2ccccc2)NC(=O)C2CC3(C2)CN(C3)C(=O)[C@H](Cc2ccccc2)N(C)C1=O [compound 102] (cyclo(FR[3Pal][Cba]Y(Me)[Nle][NMeF][X70]))" target_or_test_system="KRAS-G12D protein (Homo sapiens, UniProt P01116, G12D)" class=n
compound="CCCC[C@@H]1NC(=O)[C@H](Cc2cccnc2)NC(=O)[C@H](CO)N(C)C(=O)[C@H](Cc2ccccc2)OC(=O)C23CC(CNC(=O)[C@H](Cc4cccnc4)N(C)C(=O)[C@H](CCCC)NC(=O)[C@H](Cc4ccccc4F)NC1=O)(C2)C3 [compound 118] (cyclo([3Pal][Nle][Phe(2-F)][Nle][NMe3Pal][X1][PhLac][NMeS]))" target_or_test_system="KRAS-G12D protein (Homo sapiens, UniProt P01116, G12D)" class=y
